system: RXF 631; experiment: NCI tumour cell line growth inhibition, 48 h
Activity calls are given as the source filed them. Cut-off read from the data, not from the text of the source: active = GI50 up to about 1.1 µM and inactive = higher.
Labels: active, inactive

N#Cc1ccccc1Nc1ccccc1S : inactive
C[C@]12CCC[C@H](O)[C@H]1C[C@H](CO)CC2 : inactive
COC1(OC)CCC2C1C1CCC(OC)(OC)C21 (centres undefined) : inactive
COC12CCC(C(C(=O)c3ccccc3)=C1C(=O)c1ccccc1)C(O)C2 (centres undefined) : inactive
O=C(NCCCl)SCCO : inactive
CN1C[C@@H]2CC(=O)CC[C@@H]2C[C@H]1C#N : inactive
CC(C)C(/N=C1\CC2CCC1(C(=O)Nc1ccccc1O)C2(C)C)c1ccccc1 (centres undefined) : inactive
Cc1nsc2cc(Cl)n(C)c(=O)c12 : inactive
COc1ccc(CCn2cncn2)cc1 : inactive
O=C1c2cccc3cccc(c23)C(=O)N1CCCN1CCN(CCCN2C(=O)c3cccc4cccc(c34)C2=O)CC1 : inactive
COc1ccc(C)cc1-c1ccc(-c2cc(C)ccc2OC)o1 : inactive
Nc1ncnc(NC2C=C(CO)C(O)C2O)c1[N+](=O)[O-] (centres undefined) : inactive
COC1CCC(OC)C(C2(C3CC(OC)CCC3OC)OC(=O)c3ccccc32)C1 (centres undefined) : inactive
NC(=O)COC(=O)c1c(Cl)nc2sccn12 : inactive
O=c1nc(NC(c2ccccc2)(c2ccccc2)c2ccccc2)ccn1CCCl : inactive
CCN(CC)CCNc1ccc2nc(C)n3c4ccc(O)cc4c(=O)c1c23 : active
COc1ccc(Br)c(N/N=C2\CCCNC2=O)c1 : inactive
O=C1CCC2(c3ccccc3)Nc3ccccc3N12 (centres undefined) : inactive
CCOC(=O)C1=C(NC(C)(C)C)OCC1=O : inactive
C[C@]12CCC(=O)C=C1CC[C@@H]1C2CC[C@]2(C)Nc3c(cnn3-c3ccccc3)CC12 (some centres undefined) : inactive
O=C(OC1CC(n2cc(F)c(=O)[nH]c2=O)OC1CSC(=O)c1ccccc1)c1ccccc1 (centres undefined) : inactive
COc1ccc(OC)c2c(C(=O)O)c(C(C)c3ccccc3)ccc12 (centres undefined) : inactive
COC1C(O)C(C)OC(OC2C(Oc3cccc4c(O)c5c(=O)oc6ccc(C)c7c(=O)oc(c34)c5c67)OC(C)C3O[C@H](c4ccccc4)OC32)C1O (some centres undefined) : active
COc1cc(/C=C/c2ccc(Br)cc2)cc(OC)c1OC : inactive

###

Quick reference for GI50 among some compounds
tested on: Hs-578T; assay: NCI tumour cell line growth inhibition, 48 h
The source made the active and inactive calls. Cut-off read from the data, not from the text of the source: active = GI50 up to about 1.1 µM and inactive = higher.
result-type: GI50

CC1CC(N)=Nc2ccccc2N1 (centres undefined) : > 100 µM (inactive)
COC(=O)C1=C(OC(=O)/C(=C/c2ccccc2)c2ccc(Cl)cc2)C(C(=O)OC)[C@@]2(O)[C@@H](C(=O)OC)[C@H](C)C[C@@H]1[C@@H]2C(=O)OC (some centres undefined) : > 100 µM (inactive)
CC1=C(C#N)C(=C(C#N)C#N)OC1(C)Cc1ccccc1 (centres undefined) : 30 µM (inactive)
CC1=CC(C)C(C)N(CC2=NCCN2)c2ccccc21 (centres undefined) : > 74.3 µM (inactive)
CC1(C)CCC[C@@]2(C)C1CC[C@@]1(CO)O[C@H](C3=CC(=O)OC3O)C[C@H]12 (some centres undefined) : 14.7 µM (inactive)
CC(C)C1(NC(=O)C2CC3c4cccc5[nH]cc(c45)CC3N(C)C2)OC2(O)C3CCCN3C(=O)C(Cc3ccccc3)N2C1=O (centres undefined) : 27.6 µM (inactive)
CC(=O)NNC1=NN(C(C)=O)C2(S1)C(=O)Nc1ccc(Br)cc12 (centres undefined) : > 100 µM (inactive)
CCCCCC[C@H]([C@H](C)O)n1cnc2c(N)ncnc21 : > 100 µM (inactive)
Cc1ccc(-c2nc3cc([N+](=O)[O-])ccc3[nH]2)cc1 : > 100 µM (inactive)

Source: ChEMBL document CHEMBL1201862
